- ASSAY_TEXT: soluble on expression in E. coli; label from the status in PepcDB or PDB records

{"PRIMARY_SEQUENCE": "MGSDKIHHHHHHMTNQNYLAKTTNKQYIVKFFGKGTEKLINRQDEKYNLELLKDLGLDVKNYLFDIEAGIKVNEYIESAITLDSTSIKTKFDKITPILQTIHTSAKELRGEFAPFEEIKKYESLIEEQIPYANYESVRNAVFSLEKRLADLGVDRKSCHIDLVPENFIESPQGRLYLIDWEYSSMNDPMWDLAALFLESEFTSQEEETFLSHYESDQTPVSHEKIAIYKILQDTIWSLWTVYKEEQGEDFGDYGVNRYQRAIKGLASYGGSDEK", "soluble on expression in E. coli": "not soluble"}
{"PRIMARY_SEQUENCE": "MNDVSKASLPKAIFLMGPTASGKTALAIELRKVLPVELISVDSALIYRGMDIGTAKPNADELKAAPHRLLDIRDPSQAYSAADFRRDALAQMAEITAAGRIPLLVGGTMLYFKALLEGLSPLPSADPEVRSRIEQQAAELGWEALHQQLQEIDPVAAARIHPNDPQRLSRALEVFFISGKTLTELTQTSGDALPYQVHQFAIAPASRELLHQRIELRFHQMLASGFEAEVRALFARGDLHTDLPSIRCVGYRQMWSYIEGEISYDEMVYRGVCATRQLAKRQMTWLRGWEGVRWLDSENPDRARKEVLQVVGAIADMAGDPLEHHHHHH", "soluble on expression in E. coli": "not soluble"}
{"PRIMARY_SEQUENCE": "MDSKSHGWLIGANGTILETHDGGEHWEPRTFDFLRMDEEINYRFESISCYGNEGWIVGKPPILLHTQNGGKDWERIPLSSKLPGEPVLITALGPNRAELATTAGAIYTTDNGGKNWKALVKETIDATLNRTTSSGVTGASYYTGTVISITRDCNGYYLAISSRGNFYVTWHPGQEYWTPHPRDSSRRIQSMGFVQNDIHKGLWMANNGGFLGFSPPNPSLDTVSSIPFQRVDIRTGGYGILDVAFHQQKRNEVWASVGSGILYRSFDGGKHWEKDPWLDHLGSVLYRIKFVENSGFILGAKGTLLRYNG", "soluble on expression in E. coli": "soluble"}
{"PRIMARY_SEQUENCE": "MGVTLAKGGNVSLSKAAPNLTQVMIGLGWDARSTTGAPFDLDASALLCREGRVLGDEWFVFYNQLKSPDGSVEHTGDNLTGEGEGDDESILVDLSTVPAQVDKIVFPVSIHEADNRGQTFGQVSNAFIRVVNQADGQELARYDLSEDASTETAMIFGEVYRYGGEWKFRAVGQGYASGLRGIVQDFGVSVS", "soluble on expression in E. coli": "not soluble"}
{"PRIMARY_SEQUENCE": "MLPDPPRDPFNNLDPAQTVRVLPRHLAGPGQADLETIWAFPFDDGWHLHQGLEGMVFAISPCARLWTRFAPKPEERGADTWTIGMDRAPFGPRAWEITFDATTPAELLRDVHTELLDLYLEDRHSEKNHLVEDPTAPHEVYTPLLTHGWSHSVKTDGTQTFLPPEGLGGVRHRYATTGSDGPVWRAWGGYPSAPHWQAQFSAGAPTTLAAAFTASLISTEPLHRAVKQIPFHTRRHLYVAPAAAPQPPSHLPPAPPSAPHPAGRARLEHHHHHH", "soluble on expression in E. coli": "soluble"}
{"PRIMARY_SEQUENCE": "MMDFEDFGNPLAGKPLSQADKAAAVLLAMGKGVAGKLLKFFTQHELQMIISSAQTLRVIPPDELAQIVAEFEDLFTEGTGLMDNAKAIESILEEGLTPEEVDSLLGRRAAFQAYEASIWDRLQEAEPEFVGKFLLREHPQTIAYILSMLPSSFGAKVLLTIPEEQRADIMNRTVNMKEVSPTAAQIIEKRVVNLINEIEAERNAGGSTKVADLMNELDKPQVDTLLSSLETLSKEAANKVKPKIFLFDDLMFMPQRSRVLLLNDVSADVLTMALRGATVEIKECVLSSISPRQRRMIESDLAVPQASLNTREVAIARRAVAQEAIRLANSGQIQLKDVAAEEQSAAA", "soluble on expression in E. coli": "not soluble"}
{"PRIMARY_SEQUENCE": "MGSDKIHHHHHHMTRSVLVDLDAVLSIARLGSFRAAALDLGMSTTALSNAIAKLEQRLGVRLFNRTTRSVSLTDAGKTFAERVGPAMMDIHDAMLSVQSLQETPAGTLRINAFATAAREVMEPLILSFMQRYPQVHIDLVTEGRIVDIVAAGFDLGLRPADLVPADMIAVSLGLKRSNAVVASPDFLRIHGIPTVPADLYRFRCIRARLPNNALFRWKFEKDGDAMQIDVQGSITLDESSLVRIAAQNGVGLGYVMEADVREDIAAGRLVRVLEDWTPALAPLALYYPGRKNPPAAFSAFIQAARNFANGG", "soluble on expression in E. coli": "not soluble"}
{"PRIMARY_SEQUENCE": "MNKSESRYYATAARMDEAFLTLLAKKDFEYITVKEICEVAGVNRSTFYLHYETMSDLLSESISRINEQFLAYMEKDSDAFSAKLRNCPRDELYLITPDYLTPYLSYIKNNKRLFRTATENAAVLGMDKSYDRMFRHVFTPILDRYGVLQQDRPYIMAFYIRGLMAIISEWLKNDCTDSITYVTGVIQQCVKMPQSETMNAV", "soluble on expression in E. coli": "not soluble"}
{"PRIMARY_SEQUENCE": "MSGNSLKGKRIGFGLTGSHCTYDAVFPEIEKLVNEGAEVLPIVTYTVKTTNTRFGEGEEWVKKLEQLTGNEVIDTIVKAEPLGPKIPLDCMVIAPLTGNSMSKLANAMTDSPVLMAAKATMRNHRPVVLGISTNDALGLNGVNLMRLMAAKNIYFIPFGQDAPQAKPNSMVAYMPLLRDTILAALEGKQLQPVIIERFRYN", "soluble on expression in E. coli": "not soluble"}
{"PRIMARY_SEQUENCE": "SNALFSSRDILEVLQDIHMETGETVAIATKNDIYLQYIQIIESVHALRFHVDENAIRPLTMSSNGWMLMSTMNDKAIDNTVRRANTITQKDGIRFEVDDMMARIRQVREQGYASAEHIPFVGGGTICVLLPMTIQGQPVTMGLGGALDRIKQNYDRYLELLLNGVQQLKKSDSFHQPI", "soluble on expression in E. coli": "soluble"}
{"PRIMARY_SEQUENCE": "MGSDKIHHHHHHMANFIEKITYLGTPAIKAGNEHLEMIVVPEWGSNVISLVDKTTNVQLLREPETAESFHDTPTLYGIPILFPPNRISDGTFSFRGRTYHFDINEKDKHNHLHGFLYHEKWNVVTTKQTDEGVIVETEIDLSELPHVQKQFPHHAVVRMTYTIKENTLFKHATVMNKGKEAFPWGIGYHTTFIFPAESSLFSLTADQQWELDERLLPTGKLMDVPYKEALHEGMDLRHKQLDDVFLSSYQKRGGENQAVIYHQHAHISIIYKADEQFKHWVVYNADGKQGYLCPEPYTWVTNAVNLDLPSSLTGLQVLEPGEETTAKSSITIELNHQ", "soluble on expression in E. coli": "not soluble"}
